# Test system: Lichtheimia corymbifera
# assay.remarks: Antifungal activity against Absidia corymbifera 272 after 24 to 48 hrs hrs by microdilution broth assay
# Format: functional
Activity calls are given as the source filed them. The calls are words filed in the database; no cut-off is given here.

| molecule.smiles | system.under.test | Activity |
| --- | --- | --- |
| O=C(CN1C(=O)CSC1=S)Oc1ccc(Cl)cc1 | Lichtheimia corymbifera | inactive |
| O=C(O)CN1C(=O)/C(=C/c2ccccc2O)SC1=S | Lichtheimia corymbifera | inactive |
| O=C(O)CN1C(=O)/C(=C/c2ccccn2)SC1=S | Lichtheimia corymbifera | inactive |
| O=C(CN1C(=O)/C(=C/c2ccccn2)SC1=S)Nc1ccc(Cl)cc1 | Lichtheimia corymbifera | inactive |
| O=C(CN1C(=O)CSC1=S)Nc1ccc(C(F)(F)F)cc1 | Lichtheimia corymbifera | inactive |
| O=C(CN1C(=O)/C(=C/c2cc(Br)ccc2O)SC1=S)Nc1ccc(Cl)cc1 | Lichtheimia corymbifera | inactive |
| O=C(O)CN1C(=O)/C(=C/c2cc(Cl)ccc2O)SC1=S | Lichtheimia corymbifera | inactive |
| O=C(CN1C(=O)CSC1=S)Nc1ccc(Cl)cc1 | Lichtheimia corymbifera | inactive |
| CC(=O)Oc1ccccc1/C=C1\SC(=S)N(CC(=O)O)C1=O | Lichtheimia corymbifera | inactive |
| O=C(CN1C(=O)/C(=C/c2cc(Cl)ccc2O)SC1=S)Nc1ccc(Cl)cc1 | Lichtheimia corymbifera | inactive |
| O=C(O)CN1C(=O)/C(=C/c2cc(Br)ccc2O)SC1=S | Lichtheimia corymbifera | inactive |
